Target: T1, CTLA4 antigen on the surface of 293F-CTLA4 host cells (UniProt P16410 36-223, limits assumed)
T1 construct: whole, on cells
T1 sequence (looked up): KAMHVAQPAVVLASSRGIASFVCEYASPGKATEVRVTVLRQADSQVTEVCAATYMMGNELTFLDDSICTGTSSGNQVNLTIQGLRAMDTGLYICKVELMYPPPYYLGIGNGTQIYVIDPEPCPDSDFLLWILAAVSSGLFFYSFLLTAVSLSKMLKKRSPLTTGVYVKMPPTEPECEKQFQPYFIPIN
Experiment: flow cytometry, 293F-CTLA4 cells; antibody 0.001 nM

binder	fluorescence intensity
humanized antibody 8D2H2L2 (antibody, V domains shown, also called 8D2H2L2(20150327); 8D2H2L2(20140422)) VH: EVQLVESGGGLVQPGGSMRLSCAASGFTFSDNWMNWVRQAPGKGLEWLAQIRNKPYNYETYYSASVKGRFTISRDDSKNSVYLQMNSLKTEDTGVYYCTAQFAYWGQGTLVTVSS VL: DIQMTQSPSSLSASVGDRVTITCRTSENIYGGLNWYQRKPGKSPKLLIYGATNLASGVSSRFSGSGSGTDYTLTISSLQPEDVATYYCQNVLRSPFTFGSGTKLEIK	10.8
